Reported IC50, Xanthine dehydrogenase/oxidase (Homo sapiens).

compound | targetOrTestSystem | IC50, µM
O=c1cc(-c2ccc(O)c(O)c2)oc2cc(O)cc(O)c12 [LUTEOLIN] | Xanthine dehydrogenase/oxidase (Homo sapiens) | 7.8
CCOC(=O)C1=Nc2c(O)ccc(-c3cc(=O)c4c(O)cc(O)cc4o3)c2SC1 | Xanthine dehydrogenase/oxidase (Homo sapiens) | 1.7

Ref: ChEMBL document CHEMBL3600320
